assay-system: Activated CDC42 kinase 1 (Homo sapiens);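 also: values are mean inhibition of TNK2, from the GSK PKIS screening dataset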
test-settings: at 0.1 µM
property-measured: inhibition (%)

>  <chemical-smiles>
COc1cccc(COc2cc(-n3cnc4ccccc43)sc2C(N)=O)c1

>  <property-measured>
inhibition

>  <numeric-readout>
-0.46

$$$$
>  <chemical-smiles>
NS(=O)(=O)c1ccc(-c2ccc3c(NC(=O)C4CC4)n[nH]c3c2)cc1

>  <property-measured>
inhibition

>  <numeric-readout>
1.28

$$$$
>  <chemical-smiles>
NS(=O)(=O)c1ccc(N/C=C2\C(=O)Nc3ccc4ncsc4c32)cc1

>  <property-measured>
inhibition

>  <numeric-readout>
0.75

$$$$
>  <chemical-smiles>
COc1cccc(-n2ncc3c(N/N=C/c4ccncc4)ncnc32)c1

>  <property-measured>
inhibition

>  <numeric-readout>
2.06

$$$$
>  <chemical-smiles>
CCn1c(-c2nonc2N)nc2c(C#CC(C)(C)O)ncc(OC[C@@H]3CCCN3)c21

>  <property-measured>
inhibition

>  <numeric-readout>
-0.73

$$$$
